- Test system: S. epidermidis ATCC 14990
- assay.method.text: Blood bacteriostatic activity test in sheep blood
- Type: cell-based, Staphylococcus epidermidis
- recorded.conditions: 8 µg/mL, 24 h, 37 °C, t0 1.70 × 10^7, control t24 5.10 × 10^8
- Protocol: The manifestation of the bactericidal properties of chemical compounds is low minimum bactericidal concentration (MBC) values, which allows many groups of researchers to check the killing rate over time (time killing tests). It is an important element in determining the strength and speed of action of a compound on bacteria. […] The assay was performed as previously described by with a modification. […] Bacterial survivors were determined on MH agar plates (CFU/mL) at 24 h after exposure.
quantity: Number of viable cells of Staphylococcus epidermidis

[in] Data request, read-out Number of viable cells of Staphylococcus epidermidis, for Cc1cc(S(=O)(=O)NC(=O)/C=C/c2ccc(Cl)cc2)c(SCc2cccc3ccccc23)cc1Cl [Compound 16d]
[out] 2.50 × 10^6 CFU/mL

[in] Give its Number of viable cells of Staphylococcus epidermidis value. Item: COc1ccc(/C=C/C(=O)NS(=O)(=O)c2cc(C)c(Cl)cc2SCc2cccc3ccccc23)cc1F [Compound 16e]
[out] 3.00 × 10^6 CFU/mL

[in] Reported Number of viable cells of Staphylococcus epidermidis, compound Cc1cc(S(=O)(=O)NC(=O)C=Cc2ccccc2)c(SCc2cccc3ccccc23)cc1Cl [Compound 16a] : ____
[out] 2.50 × 10^6 CFU/mL

[in] Entry Cc1cc(S(=O)(=O)NC(=O)/C=C/c2ccc(Cl)cc2)c(SCc2cc3c(cc2Cl)OCO3)cc1Cl [Compound 17c] : reported Number of viable cells of Staphylococcus epidermidis = ?
[out] 5.10 × 10^6 CFU/mL

* * *

- System: S. aureus ATCC 6538
- assay.method.text: Blood bacteriostatic activity test in sheep blood
- Assay type: cell-based, Staphylococcus aureus
- recorded.conditions: 4 µg/mL, 24 h, 37 °C, t0 1.30 × 10^8, control t24 2.28 × 10^9
Provide the reported Number of viable cells of Staphylococcus aureus of each item.

[in] Which Number of viable cells of Staphylococcus aureus is reported for this molecule? COc1ccc(/C=C/C(=O)NS(=O)(=O)c2cc(C)c(Cl)cc2SCc2cccc3ccccc23)cc1F [Compound 16e]
[out] 1.94 × 10^8 CFU/mL

[in] # lookup: Number of viable cells of Staphylococcus aureus of Cc1cc(S(=O)(=O)NC(=O)/C=C/c2ccc(Cl)cc2)c(SCc2cccc3ccccc23)cc1Cl [Compound 16d]
[out] 1.58 × 10^8 CFU/mL

[in] Endpoint output: Number of viable cells of Staphylococcus aureus of Cc1cc(S(=O)(=O)NC(=O)/C=C/c2ccc(Cl)cc2)c(SCc2cc3c(cc2Cl)OCO3)cc1Cl [Compound 17c] . Value?
[out] 2.02 × 10^8 CFU/mL

[in] Suppose we examine the molecule Cc1cc(S(=O)(=O)NC(=O)C=Cc2ccccc2)c(SCc2cccc3ccccc23)cc1Cl [Compound 16a] ; what Number of viable cells of Staphylococcus aureus value has been reported?
[out] 8.10 × 10^8 CFU/mL

* * *

- System: S. aureus ATCC 6538
- assay.method.text: Blood bacteriostatic activity test in sheep blood
- Format: cell-based, Staphylococcus aureus
- recorded.conditions: 2 µg/mL, 24 h, 37 °C, t0 1.30 × 10^8, control t24 2.28 × 10^9
What Number of viable cells of Staphylococcus aureus was measured for each of the following?

[in] Could you tell me which Number of viable cells of Staphylococcus aureus is on file for COc1ccc(/C=C/C(=O)NS(=O)(=O)c2cc(C)c(Cl)cc2SCc2cccc3ccccc23)cc1F [Compound 16e] ?
[out] 1.27 × 10^8 CFU/mL

[in] Name the recorded Number of viable cells of Staphylococcus aureus for Cc1cc(S(=O)(=O)NC(=O)/C=C/c2ccc(Cl)cc2)c(SCc2cc3c(cc2Cl)OCO3)cc1Cl [Compound 17c] .
[out] 1.09 × 10^8 CFU/mL

[in] I'd like to know its Number of viable cells of Staphylococcus aureus. The compound in question is Cc1cc(S(=O)(=O)NC(=O)C=Cc2ccccc2)c(SCc2cccc3ccccc23)cc1Cl [Compound 16a]
[out] 7.50 × 10^8 CFU/mL

[in] Data request, read-out Number of viable cells of Staphylococcus aureus, for Cc1cc(S(=O)(=O)NC(=O)/C=C/c2ccc(Cl)cc2)c(SCc2cccc3ccccc23)cc1Cl [Compound 16d]
[out] 1.66 × 10^8 CFU/mL
